B1: E3 ubiquitin-protein ligase NEDD4, residues 836 to 881; numbered along this chain, P46934 (parent)
chain: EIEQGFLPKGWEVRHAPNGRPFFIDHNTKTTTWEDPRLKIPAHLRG

# Variants of: B1
# assay-info: abundance fitness (aPCA) (normalised: wild type 0, dead -1); higher = more abundant; growth selection in yeast, the domain comes from the species named
# experimental-parameters: Homo sapiens
measurement-kind: abundance fitness
Answer field: number only, no words.

mut: F23T
abundance fitness: -0.883
//
mut: H43E
abundance fitness: 0.105
//
mut: I40R
abundance fitness: -0.018

Value of abundance fitness reported for the variant I40Q is 0.085

What the record says about R45F : abundance fitness is -0.174

Sample T31P ; abundance fitness observed: -0.901

Summary for this variant, T28I : abundance fitness is -0.901

The reported value for P41V in terms of abundance fitness is -0.141
